target.of.assay: UPR counterscreen luciferase reporter, luminescence
method: luciferase reporter activation, UPR counterscreen line – cell-based, luminescence, counter-screen for adaptive UPR activator project, dose response (AID 489027)
The source made the active and inactive calls. No rule for the calls is given here.
Just give me one of these, please: T = active, F = inactive

Exercise: What is the recorded call for this compound in the test? `CCc1ccc2[nH]c3nc(SCC(=O)NNC(=O)c4ccc(C(C)(C)C)cc4)nnc3c2c1`
Solution: F

Exercise: What is the recorded call for this compound in the test? CCOc1ccc(NC(=O)C(Cc2ccccc2)N2C(=O)c3cccc4cccc(c34)C2=O)cc1 (centres undefined)
Solution: F

Exercise: What is the recorded call for this compound in the test? CC1CN(S(=O)(=O)c2ccc(C(=O)Nc3nc(-c4cc5ccccc5o4)cs3)cc2)CC(C)O1 (centres undefined)
Solution: T

Exercise: What is the recorded call for this compound in the test? CC1CCC(C(C)C)C(OC(=O)Cn2c(-c3ccc(Cl)cc3)[n+](C)c3ccccc32)C1 (centres undefined)
Solution: T

Exercise: What is the recorded call for this compound in the test? `NS(=O)(=O)c1ccc(N/N=C/c2cn(-c3ccccc3)nc2-c2cccs2)c([N+](=O)[O-])c1`
Solution: F

Exercise: What is the recorded call for this compound in the test? `COc1cc2c(cc1NC(=S)NC(=O)/C=C/c1ccco1)oc1ccccc12`
Solution: F

Exercise: What is the recorded call for this compound in the test? `O=CC1=C(c2ccccc2)Oc2ccccc2O1`
Solution: T

Exercise: What is the recorded call for this compound in the test? `N=c1n(CC(=O)c2ccc([N+](=O)[O-])cc2)c2ccccc2n1Cc1ccc(Cl)cc1`
Solution: T

Exercise: What is the recorded call for this compound in the test? `CCCCN(CC)S(=O)(=O)c1ccc(C(=O)N=c2sc3cc(NC(C)=O)ccc3n2C)cc1`
Solution: T

Exercise: What is the recorded call for this compound in the test? CC1(C)CC[C@@]23CC[C@]4(C)[C@@](OC2=O)(C3C1)[C@H]1O[C@H]1C1[C@@]2(C)CC[C@H](O)C(C)(C)C2CC[C@]14C (some centres undefined)
Solution: F

Exercise: What is the recorded call for this compound in the test? `CCCCCCCCCCOC(=O)Cn1c(COc2ccc(OC)cc2)[n+](C)c2ccccc21`
Solution: T

Exercise: What is the recorded call for this compound in the test? `CC(C)(C)c1csc(NC(=O)c2ccc(Cl)s2)n1`
Solution: F

Exercise: What is the recorded call for this compound in the test? COc1ccc(C(CCNCc2ccccc2)c2ccc(F)cc2)cc1 (centres undefined)
Solution: T

Exercise: What is the recorded call for this compound in the test? `Cc1ccc(-c2nn(CC(=O)NCc3cc(-c4nn(C)c(=O)c5ccccc45)ccc3C)c(=O)c3ccccc23)cc1`
Solution: T

Exercise: What is the recorded call for this compound in the test? `CCOc1ccc(Cn2c3ccc(OC)cc3c3nc4ccccc4nc32)cc1OC`
Solution: F

Exercise: What is the recorded call for this compound in the test? `O=Cc1cc2ccccc2nc1SCc1ccc(Cl)cc1`
Solution: F

Exercise: What is the recorded call for this compound in the test? `COc1ccc(-c2c/c(=N\c3nc(-c4ccccc4)c(C)s3)c3ccccc3o2)cc1O`
Solution: F

Exercise: What is the recorded call for this compound in the test? `CCc1ccc2nc(N(CCCN(C)C)C(=O)c3ccc(S(=O)(=O)N4CCc5ccccc5C4)cc3)sc2c1`
Solution: T

Exercise: What is the recorded call for this compound in the test? `COc1cc2nc(N3CCN(c4cc(C)ccc4C)CC3)nc(N)c2cc1OC`
Solution: T
